Listed next: entries and their corresponding log k.
PROCEDURE DETAILS: lipophilicity by isocratic RP-HPLC (log k, k, log kw, S)
Assay type: physicochemical
SETUP CONDITIONS: mobile phase MeOH/water 95:5 (v/v)
From the text: Octadecyl-functionalized silica gel was currently used as a stationary phase (SPh) and a […] of two solvents at different volume ratios modified retention properties of the SPh. […] The MeOH modifier was preferred because of similarity of both observed and extrapolated lipophilicity parameters with the ones determined in the octan-1-ol/water partition system, considering also sensitivity to H-bond donor properties of investigated compounds [41]. […]
Respond with the number and no other words.

- COMPOUND: "CCCCCCCOc1cccc(NC(=O)OC(CN(CCC)CCC)CN2CCCCCC2)c1.Cl.Cl (centres unmarked) [1p]"
  log k: 0.2051
- COMPOUND: "CCCCOc1ccccc1NC(=O)OC(CN(CCC)CCC)CN1CCCCCC1 (centres unmarked) [1i]"
  log k: 0.3954
- COMPOUND: "CCCCCOc1ccccc1NC(=O)OC(CN(CCC)CCC)CN1CCCCCC1.O=C(O)C(=O)O (centres unmarked) [1j]"
  log k: 0.4509
- COMPOUND: "CCCCCCOc1cccc(NC(=O)OC(CN(CCC)CCC)CN2CCCCCC2)c1.Cl.Cl (centres unmarked) [1o]"
  log k: 0.1095

// next item, log k requested
Problem: Which log k value is on record for CCCCOc1cccc(NC(=O)OC(CN(CCC)CCC)CN2CCCC2)c1 (centres unmarked) [1e] ?
Result: −0.1454

====

Test system: M. avium CNCTC My 330/80 (identical with ATCC 25291; MA 330/80)
PROCEDURE DETAILS: in vitro antimycobacterial MIC, dilution micromethod in Šula's semisynthetic medium
Format: cell-based, Mycobacterium avium
SETUP CONDITIONS: Mycobacterium avium, ATCC25291, 336 h, 14-day cultivation; read-out: MIC MA 330/80 14-d
READOUT: MIC (µM)
Report only the number, with the unit µM understood.

These solved cases illustrate the format of a correct answer.
- COMPOUND: "CCCCCCCOc1cccc(NC(=O)OC(CN(CCC)CCC)CN2CCCCCC2)c1.O=C(O)C(=O)O (centres unmarked)"
  OBS VALUE: 32
- COMPOUND: "CCCCCOc1ccccc1NC(=O)OC(CN(CCC)CCC)CN1CCCC1 (centres unmarked)"
  OBS VALUE: 62.5

Problem: MIC lookup needed for CCCCCCOc1cccc(NC(=O)OC(CN(CCC)CCC)CN2CCCC2)c1 (centres unmarked) , thanks.
Result: 16

Problem: Bench note: what MIC did CCCCOc1ccccc1NC(=O)OC(CN(CCC)CCC)CN1CCCC1 (centres unmarked) show?
Result: 125

Problem: Would you kindly share the measured MIC for CCCCOc1ccccc1NC(=O)OC(CN(CCC)CCC)CN1CCCCCC1 (centres unmarked) ?
Result: 62.5

====

PROCEDURE DETAILS: electronic properties, UV/Vis spectrophotometry of methanolic solutions
Assay type: physicochemical
SETUP CONDITIONS: methanolic solution c = 8.0 × 10^−5 M, λ3 = 278–280 nm
# Lookup of reported log ε3 keyed by entry
The response must contain the number and no unit.

Some entries whose results are on file:
- COMPOUND: "CCCCCOc1cccc(NC(=O)OC(CN(CCC)CCC)CN2CCCC2)c1.Cl.Cl (stereo not shown) [1f]"
  log ε3: 3.62
- COMPOUND: "CCCCCOc1ccccc1NC(=O)OC(CN(CCC)CCC)CN1CCCCCC1.O=C(O)C(=O)O (stereo not shown) [1j]"
  log ε3: 3.71
- COMPOUND: "CCCCCCCOc1cccc(NC(=O)OC(CN(CCC)CCC)CN2CCCCCC2)c1.O=C(O)C(=O)O (stereo not shown) [1l]"
  log ε3: 3.59
- COMPOUND: "CCCCOc1ccccc1NC(=O)OC(CN(CCC)CCC)CN1CCCC1 (stereo not shown) [1a]"
  log ε3: 3.63
- COMPOUND: "CCCCOc1cccc(NC(=O)OC(CN(CCC)CCC)CN2CCCC2)c1 (stereo not shown) [1e]"
  log ε3: 3.59

Problem: Any idea what log ε3 was measured for CCCCCCOc1ccccc1NC(=O)OC(CN(CCC)CCC)CN1CCCC1 (stereo not shown) [1c] ?
Result: 3.49

Problem: Please report the recorded log ε3 for CCCCCCCOc1cccc(NC(=O)OC(CN(CCC)CCC)CN2CCCCCC2)c1.Cl.Cl (stereo not shown) [1p] .
Result: 3.56

Problem: I'd like to know its log ε3. The compound in question is CCCCCCCOc1ccccc1NC(=O)OC(CN(CCC)CCC)CN1CCCC1.Cl.Cl (stereo not shown) [1d]
Result: 3.55

Problem: Need log ε3 of CCCCCCCOc1cccc(NC(=O)OC(CN(CCC)CCC)CN2CCCC2)c1.Cl.Cl (stereo not shown) [1h] , thanks.
Result: 3.63

Problem: Please look up its log ε3: CCCCCCOc1cccc(NC(=O)OC(CN(CCC)CCC)CN2CCCCCC2)c1.Cl.Cl (stereo not shown) [1o]
Result: 3.37
